target: HLA-B*83:01; test: IEDB peptide-MHC binding, purified MHC/competitive/fluorescence; filed as Kd, often an IC50 or EC50 that approximates it; bounds were set here for any values at or beyond the usual limits of such assays; conditions: source organism: Shigella flexneri 5 str. 8401
Assay endpoint: Kd

Fill blank: measured Kd of the sequence "TTIPTNLFR" is ____. ≥ 5 µM

---

target: HLA-B*35:01; assay: IEDB peptide-MHC binding, purified MHC/competitive/fluorescence; filed as Kd, often an IC50 or EC50 that approximates it; bounds were set here for any values at or beyond the usual limits of such assays; details: source organism: Shigella flexneri 5 str. 8401
Assay endpoint: pKd
Give bare numbers, as −log10 of the molar value.

What does the record list as pKd for "MFAAGLILY" ? 5.97
